# experimental.target: wild-type Epidermal Growth Factor Receptor (EGFR) (Homo sapiens (Human), UniProt P00533)
# Sequence (P00533 669-1210): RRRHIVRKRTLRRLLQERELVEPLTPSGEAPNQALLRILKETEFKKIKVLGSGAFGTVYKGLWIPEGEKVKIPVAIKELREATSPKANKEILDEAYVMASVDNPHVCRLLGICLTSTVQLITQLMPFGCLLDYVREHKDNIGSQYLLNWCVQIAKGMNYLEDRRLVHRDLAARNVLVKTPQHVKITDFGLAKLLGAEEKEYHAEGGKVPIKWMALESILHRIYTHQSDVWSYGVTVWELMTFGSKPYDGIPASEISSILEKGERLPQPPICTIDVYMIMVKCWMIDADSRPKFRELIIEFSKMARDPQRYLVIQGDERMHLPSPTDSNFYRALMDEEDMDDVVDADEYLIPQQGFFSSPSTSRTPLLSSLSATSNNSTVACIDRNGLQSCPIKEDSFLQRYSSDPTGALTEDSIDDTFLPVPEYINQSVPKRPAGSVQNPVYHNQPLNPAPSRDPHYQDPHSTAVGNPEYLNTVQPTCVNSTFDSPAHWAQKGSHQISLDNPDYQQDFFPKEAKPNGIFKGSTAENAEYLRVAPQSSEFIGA
# assay.details: WT-EGFR Kinase Assay (TR-FRET, 2 mM ATP)
# Type: biochemical
# run.parameters: read-out: EGFR Wildtyp- 2 mM ATP IC50 [mol/l] (median)
measured.parameter: pIC50
Give bare numbers, as −log10 of the molar value.

| compound | experimental.target | reported.result |
| --- | --- | --- |
| O=C(Cc1ccc(F)cc1)Nc1cc(-c2[nH]c3c(c2Nc2ccccc2)C(=O)NC2(CC2)C3)ccn1 [Example 146] | wild-type Epidermal Growth Factor Receptor (EGFR) (Homo sapiens (Human), UniProt P00533) | 6.18 |
| CN1C(=O)c2c([nH]c(-c3ccnc(NC(=O)Cc4ccc(F)cc4)c3)c2Nc2ccccc2)CC1(C)C [Example 44] | wild-type Epidermal Growth Factor Receptor (EGFR) (Homo sapiens (Human), UniProt P00533) | 5.38 |
| COCCNC(=O)c1ccc(CC(=O)Nc2cc(-c3[nH]c4c(c3Nc3ccccc3)C(=O)N(C)CC4)ccn2)cc1 [Example 152] | wild-type Epidermal Growth Factor Receptor (EGFR) (Homo sapiens (Human), UniProt P00533) | 5.78 |
| CN1CCc2[nH]c(-c3ccnc(NC(=O)Cc4cccnc4)c3)c(Nc3ccccc3)c2C1=O [Example 67] | wild-type Epidermal Growth Factor Receptor (EGFR) (Homo sapiens (Human), UniProt P00533) | 6.00 |
| O=C(Cc1ccc(F)cc1)Nc1cc(-c2[nH]c3c(c2Nc2ccccc2)C(=O)NC2(CCC2)C3)ccn1 [Example 57] | wild-type Epidermal Growth Factor Receptor (EGFR) (Homo sapiens (Human), UniProt P00533) | 6.06 |

For every record below, what is its pIC50?
1. CC(C)(O)CN1CCc2[nH]c(-c3ccnc(NC(=O)Cc4ccc(F)cc4)c3)c(Nc3ccccc3)c2C1=O [Example 23]
2. Cc1cc(CC(=O)Nc2cc(-c3[nH]c4c(c3Nc3ccccc3)C(=O)N(C)CC4)ccn2)ccn1 [Example 85]
3. CC1(C)Cc2[nH]c(-c3ccnc(NC(=O)Cc4ccc(F)cc4)c3)c(Nc3cccc(F)c3)c2C(=O)N1 [Example 119]
4. O=C(Cc1ccc(F)cc1)Nc1cc(-c2[nH]c3c(c2Nc2cccc(F)c2Cl)C(=O)NC2(CCC2)C3)ccn1 [Example 122]

Reply:
[5.14, 6.03, 5.60, 5.67]

For every record below, what is its pIC50?
1. CC1(C)Cc2[nH]c(-c3ccnc(NC(=O)Cc4cccnc4)c3)c(Nc3ccccc3)c2C(=O)N1 [Example 52]
2. Cc1ccc(CC(=O)Nc2cc(-c3[nH]c4c(c3Nc3ccccc3)C(=O)N(C)CC4)ccn2)cc1 [Example 68]
3. CN1CCc2[nH]c(-c3ccnc(NC(=O)Cc4c(F)cc(F)cc4F)c3)c(Nc3ccccc3)c2C1=O [Example 164]

Reply:
[6.28, 5.68, 6.38]
